From: BigSolDB 2.1

conditions: in isopropanol, 318.15 K
measure: solubility (mole fraction)
I'd appreciate a reply containing only the number, no unit.

Please give the measured solubility (mole fraction) for this compound: Clc1ncnc2[nH]ccc12 0.0291

* * *

settings: in isopropanol, 278.15 K
measure: solubility (mole fraction)
Output: the number by itself.

Given Clc1ncnc2[nH]ccc12 , state its recorded solubility (mole fraction). 0.00973

* * *

conditions: in ethanol, 288.15 K
measure: solubility (mole fraction)

Recorded solubility (mole fraction) for Clc1ncnc2[nH]ccc12 , please? 0.0113

* * *

conditions: in THF, 288.15 K
measure: solubility (mole fraction)
Number, no unit, nothing else.

Can you look up the measured solubility (mole fraction) of Clc1ncnc2[nH]ccc12 for me? 0.0544

* * *

conditions: in n-propanol, 323.15 K
measure: solubility (mole fraction)
# output: bare number, no unit

GET /values?readout=solubility (mole fraction)&item= Clc1ncnc2[nH]ccc12 0.0347

* * *

conditions: in acetone, 298.15 K
measure: solubility (mole fraction)
Just the number, please, no unit after it.

Given the entry Clc1ncnc2[nH]ccc12 , report its measured solubility (mole fraction). 0.0238

* * *

conditions: in toluene, 283.15 K
measure: solubility (mole fraction)
Reply with the value as a number alone.

Fill in the blank: the reported solubility (mole fraction) of Clc1ncnc2[nH]ccc12 is ____. 0.000993

* * *

settings: in isopropanol, 298.15 K
measure: solubility (mole fraction)
# print the numeric value only

Query (compound): Clc1ncnc2[nH]ccc12 ; field requested: solubility (mole fraction) 0.0174

* * *

conditions: in ethanol, 298.15 K
measure: solubility (mole fraction)
API note: the answer field is a bare number with no unit suffix.

Which value of solubility (mole fraction) has been reported for Clc1ncnc2[nH]ccc12 in the records? 0.0151

* * *

conditions: in THF, 323.15 K
measure: solubility (mole fraction)
The response must contain the number and no unit.

What value of solubility (mole fraction) has been reported for the following molecule? Clc1ncnc2[nH]ccc12 0.0954

* * *

details: in ethyl acetate, 278.15 K
measure: solubility (mole fraction)
Hey, just send me the number, nothing else.

Can you share its solubility (mole fraction)? I mean this compound: Clc1ncnc2[nH]ccc12 0.0132

* * *

settings: in n-propanol, 288.15 K
measure: solubility (mole fraction)
# answer = number (no unit)

Item Clc1ncnc2[nH]ccc12 has what recorded solubility (mole fraction)? 0.0134

* * *

details: in n-butanol, 313.15 K
measure: solubility (mole fraction)
Please respond with just the number, no unit label.

Endpoint output: solubility (mole fraction) of Clc1ncnc2[nH]ccc12 . Value? 0.0285

* * *

details: in n-hexane, 278.15 K
measure: solubility (mole fraction)

Fill in: solubility (mole fraction) of Clc1ncnc2[nH]ccc12 is ___ 0.000393

* * *

conditions: in toluene, 313.15 K
measure: solubility (mole fraction)
Respond using a number only.

Request the reported solubility (mole fraction) associated with Clc1ncnc2[nH]ccc12 0.00324

* * *

settings: in ethanol, 323.15 K
measure: solubility (mole fraction)
Respond numerically, and do not add a unit to the figure.

Give the measured solubility (mole fraction) of Clc1ncnc2[nH]ccc12 . 0.0291

* * *

conditions: in acetonitrile, 298.15 K
measure: solubility (mole fraction)
Give a plain numeric answer without units written out.

Query (compound): Clc1ncnc2[nH]ccc12 ; field requested: solubility (mole fraction) 0.00502

* * *

details: in ethyl acetate, 323.15 K
measure: solubility (mole fraction)
// return just the number, without any unit appended

Look up solubility (mole fraction): Clc1ncnc2[nH]ccc12 0.0376
